Tested on: MDA-MB-231 breast
Test name: NCI-60 one-dose screen, 48 h
Reported conditions: 10 µM unless noted
Compounds without any hit were thinned out: in the full panel of roughly 83,000, 20% have a hit. The source made the active and inactive calls. Rule for the calls: active = growth percent below 10; inactive = the rest.
One label from this list, please: 1 (yes) (active), 0 (no) (inactive)

Consider the worked cases shown below.
[in] Could you check what this test reported for CC1=CSC2=NCCN12 ?
[out] 0 (no)

[in] Query: recorded result category for O=[N+]([O-])c1ccc(N/N=C\c2ccccc2[N+](=O)[O-])nc1 in this test
[out] 0 (no)

[in] // return assay outcome for C=C(C)[C@@H]1C[C@H](O)Cc2cc(Cl)cc(Cl)c2N1
[out] 0 (no)

[in] Please state the recorded outcome for this molecule: N=c1ccn2c(n1)O[C@@H]1[C@@H](O)[C@H](CO)O[C@@H]12
[out] 0 (no)

Next:
[in] Short answer needed: outcome of this test for OC(Cc1cccnc1)c1ccccc1 (centres undefined) ?
[out] 0 (no)

[in] Per the assay record, what outcome was assigned to Cc1cc(=O)n2n1-c1ccc(Cl)cc1NC(=O)C2 ?
[out] 0 (no)

[in] // param item: S=C1SCN(Cc2ccccc2)CN1Cc1ccco1 ; yields the recorded call
[out] 0 (no)

[in] Call for entry CCOc1nc(-c2ccccc2)cc2c(O)c(C(=O)n3nc(C)cc3C)[nH]c(=O)c12 :
[out] 0 (no)

[in] How was C=C(C)[C@H]1CC/C(C)=C/CC[C@]2(C)O[C@H]2CC/C(C=O)=C\C1O (some centres undefined) classified in this test?
[out] 0 (no)
